- experiment-notes: Pharmacokinetic study
- Type: in vivo, C57BL/6 mice
- test-parameters: male, C57BL/6, mouse, plasma; po 40 mg/kg
readout-type: bioavailability
Give the value; after it, write the unit.

Read off the recorded bioavailability for `O=C(Nc1cc(Nc2ncccc2-c2ncnc3[nH]cnc23)ccc1F)c1cc(C(F)(F)F)cc(C(F)(F)F)c1` 23%

* * *

- experiment-notes: Pharmacokinetic study
- Assay type: in vivo, C57BL/6 mice
- test-parameters: male, C57BL/6, mouse, plasma; po 40 mg/kg
readout-type: Tmax (h)
Kindly provide the numeric value in h only, without the unit symbol.

Read off the recorded Tmax for O=C(Nc1cc(Nc2ncccc2-c2ncnc3[nH]cnc23)ccc1F)c1cc(C(F)(F)F)cc(C(F)(F)F)c1 [SJ-C1044] 4.3

* * *

- experiment-notes: Pharmacokinetic study
- Format: in vivo, C57BL/6 mice
- test-parameters: male, C57BL/6, mouse, plasma; iv 5 mg/kg
readout-type: AUC(0-t) (ng·h/mL)
Kindly provide the numeric value in ng·h/mL only, without the unit symbol.

Read off the recorded AUC(0-t) for `O=C(Nc1cc(Nc2ncccc2-c2ncnc3[nH]cnc23)ccc1F)c1cc(C(F)(F)F)cc(C(F)(F)F)c1` 97800

* * *

- experiment-notes: Pharmacokinetic study
- Type: in vivo, C57BL/6 mice
- test-parameters: male, C57BL/6, mouse, plasma; po 40 mg/kg
readout-type: AUC(0-t) (µg·h/mL)
Kindly provide the numeric value in µg·h/mL only, without the unit symbol.

Read off the recorded AUC(0-t) for `O=C(Nc1cc(Nc2ncccc2-c2ncnc3[nH]cnc23)ccc1F)c1cc(C(F)(F)F)cc(C(F)(F)F)c1` 228

* * *

- system-tested: ARAF (Homo sapiens, UniProt P10398)
- Sequence (P10398 1-606): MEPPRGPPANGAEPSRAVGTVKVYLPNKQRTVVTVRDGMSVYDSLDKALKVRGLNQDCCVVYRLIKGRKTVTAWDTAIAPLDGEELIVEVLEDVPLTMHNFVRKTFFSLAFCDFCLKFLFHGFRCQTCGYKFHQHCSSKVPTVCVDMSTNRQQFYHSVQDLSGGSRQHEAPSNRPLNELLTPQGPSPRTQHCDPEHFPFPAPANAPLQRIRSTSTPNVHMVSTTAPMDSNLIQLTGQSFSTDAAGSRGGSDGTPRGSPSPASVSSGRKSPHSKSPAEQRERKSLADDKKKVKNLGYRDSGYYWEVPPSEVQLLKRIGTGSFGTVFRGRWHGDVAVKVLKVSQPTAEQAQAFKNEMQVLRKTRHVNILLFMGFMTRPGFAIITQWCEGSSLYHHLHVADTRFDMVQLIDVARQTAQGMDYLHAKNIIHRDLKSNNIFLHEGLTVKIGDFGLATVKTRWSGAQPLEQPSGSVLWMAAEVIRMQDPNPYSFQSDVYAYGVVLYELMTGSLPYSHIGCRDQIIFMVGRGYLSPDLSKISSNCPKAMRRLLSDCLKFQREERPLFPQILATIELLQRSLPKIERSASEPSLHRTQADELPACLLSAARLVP
- experiment-notes: KiNativ cell-based kinase assay in HCT116
- test-parameters: HCT116, full-length protein; read-out: Binding Affinities in HCT116 (EC50)
- Protocol: Kinase selectivity profiling in cells was carried out using the KiNativ assay developed by ActivX Biosciences (La Jolla, CA, USA). HCT 116 cells were utilized for the experiment. […] Following the treatment, the cells were lysed, and the lysates were processed for further analysis. Probe labeling was performed using the lysates, and the labeled samples were subjected to LC/MS-MS (Liquid Chromatography/Mass Spectrometry) analysis.
readout-type: EC50

Read off the recorded EC50 for O=C(Nc1cc(Nc2ncccc2-c2ncnc3[nH]cnc23)ccc1F)c1cc(C(F)(F)F)cc(C(F)(F)F)c1 [SJ-C1044] > 10 µM

* * *

- experiment-notes: Pharmacokinetic study
- Format: in vivo, C57BL/6 mice
- test-parameters: male, C57BL/6, mouse, plasma; iv 5 mg/kg
- Experimental: Blood samples were collected at each time point for analysis. Plasma samples were analyzed by liquid chromatography–mass spectrometry (LC-MS/MS).
readout-type: Tmax
Give the value; after it, write the unit.

Read off the recorded Tmax for `O=C(Nc1cc(Nc2ncccc2-c2ncnc3[nH]cnc23)ccc1F)c1cc(C(F)(F)F)cc(C(F)(F)F)c1` 1.6 h

* * *

readout-type: IC50 (nM)
Kindly provide the numeric value in nM only, without the unit symbol.

Please report the measured IC50 for `O=C(Nc1cc(Nc2ncccc2-c2ncnc3[nH]cnc23)ccc1F)c1cc(C(F)(F)F)cc(C(F)(F)F)c1` tested on CSF1R (Homo sapiens, UniProt P07333). 235

* * *

- system-tested: CRAF (Homo sapiens, UniProt P04049)
- Sequence (P04049 whole entry): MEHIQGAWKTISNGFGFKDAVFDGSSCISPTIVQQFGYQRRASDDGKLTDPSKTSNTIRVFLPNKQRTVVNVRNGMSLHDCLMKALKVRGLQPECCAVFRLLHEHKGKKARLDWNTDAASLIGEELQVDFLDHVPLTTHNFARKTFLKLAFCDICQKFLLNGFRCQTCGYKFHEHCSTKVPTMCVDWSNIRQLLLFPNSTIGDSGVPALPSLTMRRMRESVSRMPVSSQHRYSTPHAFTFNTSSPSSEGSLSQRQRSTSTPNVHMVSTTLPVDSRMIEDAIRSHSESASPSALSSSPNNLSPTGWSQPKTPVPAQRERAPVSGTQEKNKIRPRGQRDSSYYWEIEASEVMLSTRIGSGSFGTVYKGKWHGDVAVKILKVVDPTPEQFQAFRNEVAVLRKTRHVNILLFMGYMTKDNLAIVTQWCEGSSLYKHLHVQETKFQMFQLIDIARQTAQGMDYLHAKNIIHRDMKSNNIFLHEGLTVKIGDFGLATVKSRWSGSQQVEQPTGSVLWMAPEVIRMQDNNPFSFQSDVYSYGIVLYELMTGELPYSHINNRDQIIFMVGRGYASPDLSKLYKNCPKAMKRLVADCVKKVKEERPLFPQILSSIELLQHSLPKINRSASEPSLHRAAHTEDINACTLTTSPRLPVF
- experiment-notes: KiNativ cell-based kinase assay in HCT116
- test-parameters: HCT116, full-length protein; read-out: Binding Affinities in HCT116 (EC50)
readout-type: EC50
Give the value; after it, write the unit.

Read off the recorded EC50 for O=C(Nc1cc(Nc2ncccc2-c2ncnc3[nH]cnc23)ccc1F)c1cc(C(F)(F)F)cc(C(F)(F)F)c1 [SJ-C1044] 1.4 µM

* * *

- system-tested: BRAF (Homo sapiens, UniProt P15056)
- Sequence (P15056 whole entry): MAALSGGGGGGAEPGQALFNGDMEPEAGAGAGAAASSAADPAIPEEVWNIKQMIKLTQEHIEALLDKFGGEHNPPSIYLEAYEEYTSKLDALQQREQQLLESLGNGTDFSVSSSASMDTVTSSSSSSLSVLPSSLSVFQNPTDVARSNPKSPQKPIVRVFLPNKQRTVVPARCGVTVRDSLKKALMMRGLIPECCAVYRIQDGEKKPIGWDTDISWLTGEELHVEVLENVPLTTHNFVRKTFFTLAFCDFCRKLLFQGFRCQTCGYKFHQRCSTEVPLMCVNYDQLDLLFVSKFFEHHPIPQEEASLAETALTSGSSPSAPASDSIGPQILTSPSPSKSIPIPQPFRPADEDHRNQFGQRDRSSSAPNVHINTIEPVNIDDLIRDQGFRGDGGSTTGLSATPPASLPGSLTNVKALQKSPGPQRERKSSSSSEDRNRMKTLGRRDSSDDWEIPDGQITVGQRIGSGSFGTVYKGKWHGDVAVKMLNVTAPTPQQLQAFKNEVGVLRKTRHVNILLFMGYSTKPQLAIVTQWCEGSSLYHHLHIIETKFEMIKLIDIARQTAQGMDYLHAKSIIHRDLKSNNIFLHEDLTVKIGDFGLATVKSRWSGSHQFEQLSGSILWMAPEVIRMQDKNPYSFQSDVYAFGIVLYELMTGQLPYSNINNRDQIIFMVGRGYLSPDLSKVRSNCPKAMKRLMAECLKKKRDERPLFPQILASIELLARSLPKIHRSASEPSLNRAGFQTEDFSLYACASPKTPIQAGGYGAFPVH
- experiment-notes: KiNativ cell-based kinase assay in HCT116
- test-parameters: HCT116, full-length protein; read-out: Binding Affinities in HCT116 (EC50)
readout-type: pEC50
pEC50 here: minus log base 10 of the concentration, concentration in moles per litre.

Read off the recorded pEC50 for `O=C(Nc1cc(Nc2ncccc2-c2ncnc3[nH]cnc23)ccc1F)c1cc(C(F)(F)F)cc(C(F)(F)F)c1` 5.89

From: paper PMC10378394
